Could you please report measured abundance fitness for the items listed next?
B1: Intersectin-1, residues 1156 to 1213; numbered along this chain, Q15811 (parent)
chain: AVCQVIGMYDYTAQNDDELAFNKGQIINVLNKEDPDWWKGEVNGQVGLFPSNYVKLTT

# Variants of: B1
# Assay Text: abundance fitness (aPCA) (normalised: wild type 0, dead -1); higher = more abundant; growth selection in yeast, the domain comes from the species named
# Test Context: Homo sapiens
Please reply with the value in numeric form only.

// recorded abundance fitness for `N43F` : -0.799

Given item `C3V` , the value recorded as its abundance fitness is -0.374

Kindly note the recorded abundance fitness for `D16L` , which is -0.3

So for `T12H` , the logged abundance fitness turned out to be -0.108

Data point: `K23H` ; abundance fitness = -0.298

// abundance fitness value for `G7K` : -0.772

Sure, the documented abundance fitness for `D36H` is -0.08

GET /value?item= `V42W` &field=abundance fitness returns -0.811

Value of abundance fitness reported for the variant `D36I` is -0.138

// sample `S51V` , its abundance fitness was -0.181

In plain terms, `N43L` has a documented abundance fitness of -0.412

Reported abundance fitness for `V54K` was -0.906

Quick note, abundance fitness for `G47F` landed at -1.01

For record `T12L` the listed abundance fitness is -0.369

Recorded abundance fitness (variant `L19F` ): -0.733

Value of measured abundance fitness for the entry `V42H` : -0.237

Reported abundance fitness ( `D16C` ) = -0.166

Recorded abundance fitness (variant `T12N` ): 0.01

Form: variant = `D36E` ; abundance fitness = -0.196

Given item `K23Q` , the value recorded as its abundance fitness is -0.043

Each recorded value in this set is attributed to the Human Domainome abundance scans (Beltran et al. 2025).
